System: HCC-2998
EXPERIMENT SUMMARY: NCI 60-cell line one-dose antiproliferative screen (SRB)
Format: cell-based
MEASUREMENT CONDITIONS: Homo sapiens, read-out: growth inhibition % (GI%)
QUANTITY KIND: inhibition at 10 µM (%)

# COMPOUND STRING, CENSORING QUALIFIER, QUANTITATIVE READOUT
rows = [
    ("Cc1ccc(C(=O)c2ccc(CC(=O)NN=Cc3ccc(O)cc3O)n2C)cc1", "=", 40.4),
    ("Cc1ccc(C(=O)c2ccc(CC(=O)NN=Cc3cccc(O)c3O)n2C)cc1", "=", 29.4),
    ("Cc1ccc(C(=O)c2ccc(CC(=O)NN=C3C(=O)Nc4ccccc43)n2C)cc1", "<", 10),
    ("Cc1ccc(C(=O)c2ccc(CC(=O)NN=Cc3ccccc3O)n2C)cc1", "<", 10),
    ("Cc1ccc(C(=O)c2ccc(CC(=O)NNC(=O)Nc3c(Cl)cccc3Cl)n2C)cc1", "<", 10),
]

Ref: paper PMC8079033
